tested on: VchCAST RNA-guided transposition machinery (E. coli BL21(DE3) host, lacZ target); test: relative integration efficiency (T-RL orientation) vs wild-type transposon end (log2 (normalized fold change)); transposon end mutated: right end (5 bp flank + 75 bp right end); higher = more efficient transposition
observable: relative integration efficiency (log2)
A bare number is all that is needed in reply.

Below: 4 sequences and their reported relative integration efficiency (log2).
ACATTTGTTGATACAACCATAAGTTGATATTTTCAACCATAAGTTGATATTTTTCAGTGGGTATTTAACTATAACGCTCTGATCATAGTCAGACCAACATTGCTACGACCCGTATTCGCACCGACAC; -0.302
ACATTGGTTCATACAACCATAAAATGATAATTACACCCATAAATTGATCATTATCACACCCAATTTAACTATAACGCTCTGATCATAGTCAGACCAACATTGCTACGACCCGTATTCGCACCGACAC; -7.14
ACATTTGTTGATACACCCATAAATTGATATTGCCACCCATAAATTGATATTGCTCACAACCATATATTGATATCTCCTCTGATCATAGTCAGACCAACATTGCTACGACCCGTATTCGCACCGACAC; -1.05
ACATTTGTTGATAGTTGGTATTTTACTATTAATGTGGGTATTTAACTATTAATTCACACCCATAAATTGATATTGCCTCTGATCATAGTCAGACCAACATTGCTACGACCCGTATTCGCACCGACAC; -6.22

Now look at this one.
Consider the sequence `ACATTTGTTGATACCACCATCAAATGGTAATTCCACCCATACATTGATAATTATCACACCCAATTTAACTATAACGCTCTGATCATAGTCAGACCAACATTGCTACGACCCGTATTCGCACCGACAC` and give its measured relative integration efficiency (log2).
-6.61

###

system: VchCAST RNA-guided transposition machinery (E. coli BL21(DE3) host, lacZ target); assay: relative integration efficiency (T-LR orientation) vs wild-type transposon end (log2 (normalized fold change)); transposon end mutated: right end (5 bp flank + 75 bp right end); higher = more efficient transposition
observable: relative integration efficiency (log2)
A bare number is all that is needed in reply.

ACATTTGTTGATACAACCATAAAATGATAATTACAACCATATATTGATATCTCTCACAACCATAAGTTGATATTTTCTCTGATCATAGTCAGACCAACATTGCTACGACCCGTATTCGCACCGACAC; -0.141
ACATTTGTTGATACAACCATAAAAGGATCATTACACCCATAAATTGATAATTATCACACCCAATTTAACTATAACGCTCTGATCATAGTCAGACCAACATTGCTACGACCCGTATTCGCACCGACAC; 1.34
ACATTTGTTGATACACCCATAAATTGATATTGCCACCCATAAATTGATAATTATCAGTGGGTATTTAACTATAACGCTCTGATCATAGTCAGACCAACATTGCTACGACCCGTATTCGCACCGACAC; 2.03

Now look at this one.
Please state recorded relative integration efficiency (log2) (tested on VchCAST RNA-guided transposition machinery (E. coli BL21(DE3) host, lacZ target)) of `ACATTTGTTGATACAACCATAAAATGATAATTAATAATTATTTATACACCCATAAATTGATAATTATCACACCCATAAATTGATATTGCCTCTGATCATAGTCAGACCAACATTGCTACGACCCGTA`
-0.465

###

tested on: VchCAST RNA-guided transposition machinery (E. coli BL21(DE3) host, lacZ target); experiment: relative integration efficiency (T-RL orientation) vs wild-type transposon end (log2 (normalized fold change)); transposon end mutated: right end (5 bp flank + 75 bp right end); higher = more efficient transposition
observable: relative integration efficiency (log2)
A bare number is all that is needed in reply.

Below: 2 sequences and their reported relative integration efficiency (log2).
ACATTGGTCGATACAACCATAAAATGATAATTACACCCATAAATGGATAATTATCACACCCAATTTAACTATAACGCTCTGATCATAGTCAGACCAACATTGCTACGACCCGTATTCGCACCGACAC; -7.16
ACATTTGTTGATACACCCATAAATTGATAATTACAACCATATATTGATATCTCTCACAACCATAAAGTGATATTTACTCTGATCATAGTCAGACCAACATTGCTACGACCCGTATTCGCACCGACAC; -0.664

Now look at this one.
Consider the sequence `ACATTTGTTGATACAACCATAAAATGATAATTACACCCCGCCCGGTCGCCGGCGACACAAACGCCCGGTCGCGGTAAGAGGATCATAGTCAGACCAACATTGCTACGACCCGTATTCGCACCGACAC` and give its measured relative integration efficiency (log2).
-2.33

###

system: VchCAST RNA-guided transposition machinery (E. coli BL21(DE3) host, lacZ target); assay: relative integration efficiency (T-RL orientation) vs wild-type transposon end (log2 (normalized fold change)); transposon end mutated: right end (5 bp flank + 75 bp right end); higher = more efficient transposition
relative integration efficiency (log2) vs -2: at or above is Y, below is N.

Recorded results for 4 sequences are shown here.
ACATTTGTTGATACAACCATAAAAGGATCATTACCCCCATAAATTGATAATTATCACACCCAATTTAACTATAACGCTCTGATCATAGTCAGACCAACATTGCTACGACCCGTATTCGCACCGACAC; N
ACATTTGTTGATACAACCATAAAATGATAATTACACCCATAAATTGATATATATCACACCCATAAATTGATATTGCCTCTGATCATAGTCAGACCAACATTGCTACGACCCGTATTCGCACCGACAC; Y
ACATTTGTTGATACAACCAAAAAATGATAATTACACCCATAAATTGATAATGATGACACCGAATTTAACTATAACGCTCTGATCATAGTCAGACCAACATTGCTACGACCCGTATTCGCACCGACAC; Y
ACATTTGTGGATACAACCATAAAACGATAATTACACCCATAAATGGATCATTATCACACCCAATTTAACTATAACGCTCTGATCATAGTCAGACCAACATTGCTACGACCCGTATTCGCACCGACAC; Y

Next item in the queue.
Does `ACATTTGTTGATACAACCATAAAATGATAATTACCCCCATAAATTGATAATTGTGACACCGAATTTAACTATAACGCTCTGATCATAGTCAGACCAACATTGCTACGACCCGTATTCGCACCGACAC` have a reported relative integration efficiency (log2) of at least -2?
Y

###

Recorded relative integration efficiency (log2) for the following sequences
test system: VchCAST RNA-guided transposition machinery (E. coli BL21(DE3) host, lacZ target); test: relative integration efficiency (T-LR orientation) vs wild-type transposon end (log2 (normalized fold change)); transposon end mutated: right end (5 bp flank + 75 bp right end); higher = more efficient transposition

Below: 2 sequences and their reported relative integration efficiency (log2).
ACATTTGTTGATACAACCATAAAATCATCATTCACCCATAAATTGATAATTATCACACCCACATTTAACTATAACGCTCTGATCATAGTCAGACCAACATTGCTACGACCCGTATTCGCACCGACAC; -1.73
ACATTTGTTGATACAACCATATATTGATATCTCCACCCATAAATTGATAATTATCACAACCATAAAGTGATATTTACTCTGATCATAGTCAGACCAACATTGCTACGACCCGTATTCGCACCGACAC; -0.378

Consider the sequence `ACATTTGTTGATACAACCATAAAATGATACGGCCACCCATAAATTGATAATTATCACACCCATAAATTGATATTGCCTCTGATCATAGTCAGACCAACATTGCTACGACCCGTATTCGCACCGACAC` and give its measured relative integration efficiency (log2).
-0.393

###

system: VchCAST RNA-guided transposition machinery (E. coli BL21(DE3) host, lacZ target); experiment: relative integration efficiency (T-RL orientation) vs wild-type transposon end (log2 (normalized fold change)); transposon end mutated: left end; higher = more efficient transposition
Recorded relative integration efficiency (log2) for the following sequences

Please state recorded relative integration efficiency (log2) (tested on VchCAST RNA-guided transposition machinery (E. coli BL21(DE3) host, lacZ target)) of `AATGTTGTTGATGCAACCATAAAGTGATATTTAATAATTATTTATAATCAGCAACTTAACCACAAACACCAACGCGCGGTCGCGAGACACCCCACCAACGCCTGGTCGCGGGGGTGTCCGATCTGATTTCAGCAAAACTACTGCAGTAAGAA`
-6.34

Please state recorded relative integration efficiency (log2) (tested on VchCAST RNA-guided transposition machinery (E. coli BL21(DE3) host, lacZ target)) of `AATGTTGTTGATGCAACCATAAAGTGATATTTAATAATCAACCATATATTGATATCTCTATTTATAATCAGCAACTTAACCACAAAAACAAAACAACCATAAGTTGATATTTTTGTGAATCGAGTATTTCAGCAAAACTACTGCAGTAAGAA`
-2.9

Please state recorded relative integration efficiency (log2) (tested on VchCAST RNA-guided transposition machinery (E. coli BL21(DE3) host, lacZ target)) of `AATGTTGTTGATGCAACCATAAAGTGATATTTAATAATCAACCATATATTGATATCTCACAAAACAACCATAAGTTGATATTTTTGTGAATCGAGTATTTCAGCAAAACTACTGCAGTAAGAAAGTTACTTCGTGGTATGGGAGGATCAAGG`
-7.79

Please state recorded relative integration efficiency (log2) (tested on VchCAST RNA-guided transposition machinery (E. coli BL21(DE3) host, lacZ target)) of `AATGTTGTTGATGCAACCATAAAGTGATATTTAATACAACCATATATTGATATCTCACAAAACAACCATAAGTTGATATTTTTGTGAATCGAGTATTTCAGCAAAACTACTGCAGTAAGAAAGTTACTTCGTGGTATGGGAGGATCAAGGAG`
-4.83
